measurement.target: T1, c-erbB-2 ECD with a Ser-Gly-His6 C-terminal fusion (UniProt P04626 23-652)
T1 construct: extracellular domain; Expressed from CHO cells, IMAC purified; coupled to a CM5 chip, coated on plates, or biotinylated with NHS-LC-biotin; also called c-erbB-2 extracellular domain; biotinylated c-erbB-2 ECD
experiment.notes: SPR BIAcore
Recorded koff for the following binders
Enter your answer as a number in s⁻¹; do not include the unit.

Please look up its koff: C6.5P100iA (scFv, C6.5 VH CDR3 scan mutant; Kabat numbering) scFv: QVQLLQSGAELKKPGESLKISCKGSGYSFTSYWIAWVRQMPGKGLEYMGLIYPGDSDTKYSPSFQGQVTISVDKSVSTAYLQWSSLKPSDSAVYFCARHDVGYCSSSNCAKWAEYFQHWGQGTLVTVSSGGGGSGGGGSGGGGSQSVLTQPPSVSAAPGQKVTISCSGSSSNIGNNYVSWYQQLPGTAPKLLIYGHTNRPAGVPDRFSGSKSGTSASLAISGFRSEDEADYYCAAWDDSLSGWVFGGGTKLTVLG 0.011

Please look up its koff: C6.5S100bA (scFv, C6.5 VH CDR3 scan mutant; Kabat numbering) scFv: QVQLLQSGAELKKPGESLKISCKGSGYSFTSYWIAWVRQMPGKGLEYMGLIYPGDSDTKYSPSFQGQVTISVDKSVSTAYLQWSSLKPSDSAVYFCARHDVGYCSASNCAKWPEYFQHWGQGTLVTVSSGGGGSGGGGSGGGGSQSVLTQPPSVSAAPGQKVTISCSGSSSNIGNNYVSWYQQLPGTAPKLLIYGHTNRPAGVPDRFSGSKSGTSASLAISGFRSEDEADYYCAAWDDSLSGWVFGGGTKLTVLG 0.016

Please look up its koff: C6.5F100lA (scFv, C6.5 VH CDR3 scan mutant; Kabat numbering; also called F1001A) scFv: QVQLLQSGAELKKPGESLKISCKGSGYSFTSYWIAWVRQMPGKGLEYMGLIYPGDSDTKYSPSFQGQVTISVDKSVSTAYLQWSSLKPSDSAVYFCARHDVGYCSSSNCAKWPEYAQHWGQGTLVTVSSGGGGSGGGGSGGGGSQSVLTQPPSVSAAPGQKVTISCSGSSSNIGNNYVSWYQQLPGTAPKLLIYGHTNRPAGVPDRFSGSKSGTSASLAISGFRSEDEADYYCAAWDDSLSGWVFGGGTKLTVLG 0.05

Please look up its koff: C6.5D96A (scFv, C6.5 VH CDR3 scan mutant; Kabat numbering) scFv: QVQLLQSGAELKKPGESLKISCKGSGYSFTSYWIAWVRQMPGKGLEYMGLIYPGDSDTKYSPSFQGQVTISVDKSVSTAYLQWSSLKPSDSAVYFCARHAVGYCSSSNCAKWPEYFQHWGQGTLVTVSSGGGGSGGGGSGGGGSQSVLTQPPSVSAAPGQKVTISCSGSSSNIGNNYVSWYQQLPGTAPKLLIYGHTNRPAGVPDRFSGSKSGTSASLAISGFRSEDEADYYCAAWDDSLSGWVFGGGTKLTVLG 0.01
